The reader will find reported pIC50 values listed item by item below.
Molecular target: Nav1.7 (or SCN9A) channel; HEK cells stably transfected with hSCN9A (Homo sapiens)
Construct: expressed in transfected cells
Sequence (Q15858 whole entry): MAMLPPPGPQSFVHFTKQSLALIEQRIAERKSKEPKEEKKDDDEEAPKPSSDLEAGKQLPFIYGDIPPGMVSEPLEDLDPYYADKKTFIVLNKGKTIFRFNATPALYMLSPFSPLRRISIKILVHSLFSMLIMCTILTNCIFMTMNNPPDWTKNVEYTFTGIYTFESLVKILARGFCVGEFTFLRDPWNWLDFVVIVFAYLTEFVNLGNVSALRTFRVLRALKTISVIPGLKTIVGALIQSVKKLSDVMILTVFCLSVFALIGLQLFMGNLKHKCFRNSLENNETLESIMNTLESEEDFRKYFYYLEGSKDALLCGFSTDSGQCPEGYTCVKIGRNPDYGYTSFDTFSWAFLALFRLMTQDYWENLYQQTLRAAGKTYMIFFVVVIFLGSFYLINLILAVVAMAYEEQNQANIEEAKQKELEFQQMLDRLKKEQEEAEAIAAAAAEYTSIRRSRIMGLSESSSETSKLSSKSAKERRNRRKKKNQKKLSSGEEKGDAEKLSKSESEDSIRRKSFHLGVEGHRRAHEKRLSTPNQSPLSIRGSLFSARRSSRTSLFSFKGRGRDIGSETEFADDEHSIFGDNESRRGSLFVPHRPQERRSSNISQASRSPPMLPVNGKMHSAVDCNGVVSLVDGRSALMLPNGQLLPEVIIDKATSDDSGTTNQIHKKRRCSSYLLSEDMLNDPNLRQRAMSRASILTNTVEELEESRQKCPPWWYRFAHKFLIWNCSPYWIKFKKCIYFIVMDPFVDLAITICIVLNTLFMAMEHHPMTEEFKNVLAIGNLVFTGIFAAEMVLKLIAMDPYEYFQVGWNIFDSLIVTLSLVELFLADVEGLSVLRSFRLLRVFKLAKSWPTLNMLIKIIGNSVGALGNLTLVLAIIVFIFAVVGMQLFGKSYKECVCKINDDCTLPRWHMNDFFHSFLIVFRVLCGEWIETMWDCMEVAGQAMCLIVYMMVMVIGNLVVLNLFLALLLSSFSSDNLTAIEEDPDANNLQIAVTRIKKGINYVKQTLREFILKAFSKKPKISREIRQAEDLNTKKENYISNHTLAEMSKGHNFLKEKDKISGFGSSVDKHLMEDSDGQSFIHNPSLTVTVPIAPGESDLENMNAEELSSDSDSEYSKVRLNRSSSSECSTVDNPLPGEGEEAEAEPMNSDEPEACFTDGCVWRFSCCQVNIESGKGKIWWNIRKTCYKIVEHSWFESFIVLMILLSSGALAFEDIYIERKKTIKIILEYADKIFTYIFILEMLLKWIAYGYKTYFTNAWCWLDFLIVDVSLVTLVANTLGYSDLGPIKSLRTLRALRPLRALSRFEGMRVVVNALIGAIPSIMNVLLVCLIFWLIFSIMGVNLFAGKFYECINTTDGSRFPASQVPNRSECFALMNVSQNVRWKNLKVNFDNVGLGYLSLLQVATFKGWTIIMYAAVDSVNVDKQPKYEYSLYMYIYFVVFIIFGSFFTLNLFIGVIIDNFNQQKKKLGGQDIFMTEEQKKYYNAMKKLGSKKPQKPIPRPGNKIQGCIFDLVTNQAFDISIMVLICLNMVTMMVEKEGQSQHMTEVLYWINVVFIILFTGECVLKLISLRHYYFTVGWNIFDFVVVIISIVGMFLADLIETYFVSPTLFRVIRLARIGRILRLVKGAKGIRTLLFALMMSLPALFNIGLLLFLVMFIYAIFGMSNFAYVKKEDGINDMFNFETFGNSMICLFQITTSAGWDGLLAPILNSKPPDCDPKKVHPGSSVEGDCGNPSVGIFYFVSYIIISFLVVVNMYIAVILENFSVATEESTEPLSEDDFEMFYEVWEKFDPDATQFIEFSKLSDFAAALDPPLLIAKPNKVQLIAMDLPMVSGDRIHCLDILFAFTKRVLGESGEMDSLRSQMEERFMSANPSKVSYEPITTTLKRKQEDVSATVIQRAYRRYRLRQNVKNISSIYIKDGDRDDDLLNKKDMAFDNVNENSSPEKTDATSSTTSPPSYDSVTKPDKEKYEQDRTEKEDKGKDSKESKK
Assay: Nav1.7 block, PatchXpress 7000 automated whole-cell voltage clamp, estimated IC50 (EIC50)
Assay type: cell-based
Details: estimated IC50; hSCN9A HEK cells, PatchXpress platform; Examples 815-1040
Please treat pIC50 as minus the base-10 logarithm of the molar concentration.

Consider the following illustrative entries.
- COMPOUND: "O=C(c1cccc(-c2cc(Cl)ccc2Oc2cc(F)c(S(=O)(=O)Nc3ncns3)cc2Cl)c1)N1CCC1 [Example 823]"
  pIC50: 8.13
- COMPOUND: "Cc1cc(NS(=O)(=O)c2ccc(Oc3ccc(Cl)cc3-c3ccnn3C)c(C#N)c2)no1 [Example 883]"
  pIC50: 4.85
- COMPOUND: "Nc1cc(-c2cc(Cl)ccc2Oc2cc(F)c(S(=O)(=O)Nc3nncs3)cc2F)ccn1 [Example 820]"
  pIC50: 6.64

Need pIC50, item O=C(c1cccc(-c2cc(Cl)ccc2Oc2cc(F)c(S(=O)(=O)Nc3nncs3)cc2Cl)c1)N1CCC1 [Example 857] 7.85
